system-name: telomerase enzyme (Homo sapiens, UniProt O14746)
Sequence (O14746 whole entry): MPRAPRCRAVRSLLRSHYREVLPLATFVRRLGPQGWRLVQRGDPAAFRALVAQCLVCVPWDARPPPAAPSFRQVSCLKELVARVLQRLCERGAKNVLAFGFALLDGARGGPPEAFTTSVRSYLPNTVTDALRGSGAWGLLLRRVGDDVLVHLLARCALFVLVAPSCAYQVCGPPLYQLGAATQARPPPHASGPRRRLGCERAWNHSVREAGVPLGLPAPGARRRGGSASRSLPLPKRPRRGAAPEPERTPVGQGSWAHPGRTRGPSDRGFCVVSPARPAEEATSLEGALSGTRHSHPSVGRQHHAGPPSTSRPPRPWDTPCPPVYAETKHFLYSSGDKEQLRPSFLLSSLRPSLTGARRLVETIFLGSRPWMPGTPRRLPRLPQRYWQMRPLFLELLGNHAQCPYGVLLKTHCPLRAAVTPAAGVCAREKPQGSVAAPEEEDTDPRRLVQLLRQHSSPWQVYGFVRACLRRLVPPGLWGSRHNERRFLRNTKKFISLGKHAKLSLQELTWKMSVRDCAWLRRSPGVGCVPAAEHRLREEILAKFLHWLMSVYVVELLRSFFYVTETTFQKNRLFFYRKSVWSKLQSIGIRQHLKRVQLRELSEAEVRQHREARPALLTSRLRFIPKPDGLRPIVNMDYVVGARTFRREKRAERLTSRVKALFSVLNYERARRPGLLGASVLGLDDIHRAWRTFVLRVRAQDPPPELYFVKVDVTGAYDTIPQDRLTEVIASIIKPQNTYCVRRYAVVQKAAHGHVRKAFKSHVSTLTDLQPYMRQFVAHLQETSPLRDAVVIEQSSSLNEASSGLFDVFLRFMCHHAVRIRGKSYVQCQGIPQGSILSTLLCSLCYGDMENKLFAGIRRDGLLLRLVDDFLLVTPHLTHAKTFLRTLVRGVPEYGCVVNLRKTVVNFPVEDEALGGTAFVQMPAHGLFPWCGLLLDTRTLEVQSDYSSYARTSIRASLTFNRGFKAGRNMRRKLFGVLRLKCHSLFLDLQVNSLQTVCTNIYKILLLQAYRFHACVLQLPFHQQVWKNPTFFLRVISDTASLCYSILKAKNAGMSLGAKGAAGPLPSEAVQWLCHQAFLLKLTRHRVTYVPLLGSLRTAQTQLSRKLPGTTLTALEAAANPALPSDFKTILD
experiment-description: Flash Plate-based telomerase assay
Assay type: biochemical
test-parameters: two hours of incubation at 37°; only indicative, obtained during screening by fitting a limited number of experimental points
quantity: IC50 (µM)

Consider the worked cases shown below.
For this compound ( Nc1nc(=O)c2c(ncn2Cc2ccc3ccccc3c2)n1Cc1ccc2c(c1)C(=O)c1ccccc1C2=O ), measured IC50 is 4

For this compound ( Nc1nc(=O)c2c(ncn2Cc2ccc3ccccc3c2)n1Cc1cccc(Oc2ccccc2)c1 ), measured IC50 is 3

1 = Nc1nc(=O)c2c(ncn2Cc2ccc(-c3ccccc3)cc2)n1Cc1ccc(-c2ccccc2)cc1
2 = Nc1nc(=O)c2c(ncn2Cc2ccc(-c3ccc(CCl)cc3)cc2)n1Cc1ccc(-c2ccc(CCl)cc2)cc1
3 = Nc1nc(=O)c2c(ncn2Cc2ccc3ccccc3c2)n1Cc1ccc(-c2nnn[nH]2)cc1
## Task Order the 3 compounds from highest to lowest IC50. Write out the labels following the order that was asked for.
## Result 3, 2, 1

These entries and their values trace back to patent US20030186978A1.
